# Tested on: HT29 colon
# EXPERIMENTAL_DETAILS: NCI tumour cell line growth inhibition, 48 h
OBSERVATION_TYPE: TGI

In [3]: df
Out[3]:
                                   compound  system_tested  measured
0  COc1cc2c(cc1OC)C1C=NC(C2)c2cc(OC)c(OC)cc21 (centres undefined)     HT29 colon  > 100 µM
1  Cc1[nH]c2ccccc2c1C(=O)CC1(O)C(=O)Nc2c(Cl)cc(Cl)cc21 (centres undefined)     HT29 colon  > 100 µM
2  C1CCC([PH+](C2CCCCC2)C2CCCCC2[PH+](C2CCCCC2)C2CCCCC2)CC1.[Au].[CH-]1CCCCC1CC1CCCC[N-]1 (centres undefined)     HT29 colon   1.98 µM
3  N#CC1C(=O)NC23CCCCC2C1c1ccccc1O3 (centres undefined)     HT29 colon  > 100 µM
4  Cc1cc(S(=O)(=O)/N=C(/N)Nc2ccccc2O)c(SCc2ccccc2)cc1Cl     HT29 colon  > 100 µM
5  COc1cc(/C=C/c2nc(NC(=S)Nc3ccccc3)nnc2C)cc(OC)c1OC     HT29 colon   48.8 µM
6  COc1cc2c3c(n(C)c(=O)c2cc1OC)-c1cc2c(cc1/C3=C\CCCCN1C(=O)c3ccccc3C1=O)OCO2     HT29 colon  > 100 µM
7  C[C@]12CC[C@@H]3c4cc(OCC(F)(F)F)c(O)cc4CC[C@H]3[C@@H]1CC[C@@H]2O     HT29 colon   15.3 µM
8  CC(=O)C(CN(CC(C)C)CC(C)C)C(c1ccccc1)c1c(O)c2ccccc2oc1=O (centres undefined)     HT29 colon  > 100 µM
